Field: pEC50. Provide a value for each of the molecules that follow.
system: PC12 inducible Htt-N63-148Q toxicity rescue; assay: protection against mutant Htt fragment cytotoxicity – PC12 cells, inducible expression, ROSShtt, dose response (AID 1590)
Records with an inconclusive call do not appear.
Schema: pEC50 number; meaning minus log10 of the concentration expressed in molar units.

Q: # lookup: pEC50 of CCN(Cc1ccncc1)C(=O)C(CO)c1ccccc1 (stereo unspecified)
Result: 8.00

Q: Try "N[C@H](C(=O)O)[C@@H]1CC(Cl)=NO1" next.
Result: 5.00

Q: Here is the next molecule: "C=C1c2cccc(O)c2C(O)=C2C(=O)[C@]3(O)C(O)=C(C(N)=O)C(=O)[C@@H](N(C)C)[C@@H]3[C@@H](O)[C@H]12"
Result: 8.00

Q: Also check O=C(O)C1CCCNC1 (stereo unspecified)
Result: 5.00

Q: Then "CN(C)[C@@H]1C(=O)C(C(N)=O)=C(O)[C@@]2(O)C(=O)C3=C(O)c4c(O)cccc4[C@@](C)(O)[C@H]3C[C@@H]12" ?
Result: 7.00

Q: // same read-out, input: "CN(C)[C@@H]1C(=O)C(C(N)=O)=C(O)[C@@]2(O)C(=O)C3=C(O)c4c(O)ccc(Cl)c4[C@@H](O)[C@H]3C[C@@H]12"
Result: 6.00

Q: "C=C1c2c(Cl)ccc(O)c2C(O)=C2C(=O)[C@]3(O)C(O)=C(C(N)=O)C(=O)[C@@H](N(C)C)[C@@H]3[C@@H](O)[C@H]12" ?
Result: 8.00

Q: Then this molecule: CCCNCC(O)COc1ccccc1C(=O)CCc1ccccc1 (stereo unspecified)
Result: 5.00

Q: Ok, now "COc1c(C)c2c(c(O)c1C/C=C(\C)CCC(=O)O)C(=O)OC2"
Result: 5.00

Q: Note, next up: CC(C)NCC(O)c1ccc(O)c(O)c1 (stereo unspecified)
Result: 4.82

Q: Proceed to "CN(C)[C@@H]1C(=O)C(C(N)=O)=C(O)[C@@]2(O)C(=O)C3=C(O)c4c(O)cccc4[C@@](C)(O)[C@H]3[C@H](O)[C@@H]12"
Result: 6.00
